Assay: Stability in Hanks' balanced salt solution (HBSS)
Assay type: physicochemical
Details: 37° C., relative to initial conc. in HBSS = 100.00
PARAMETER: Conc. after 4-hour in HBSS
A bare number is all that is needed in reply.

CCCCCCC(=O)N[C@@H](CC(N)=O)C(=O)N[C@@H](C)C(=O)N1CCC[C@H]1C(=O)N[C@H](C(=O)N[C@@H](CO)C(=O)N[C@H](C(=O)N1CCC[C@H]1C(=O)N[C@@H](CCC(N)=O)C(=O)O)[C@@H](C)CC)C(C)C [BMEC-NAP0106, C6H13CO-NAPVSIPQ-OH]
102.05

### Prompt // Conc. after 4-hour in HBSS lookup, key: CCCCCCCCOC(=O)N[C@@H](CC(N)=O)C(=O)N[C@@H](C)C(=O)N1CCC[C@H]1C(=O)N[C@H](C(=O)N[C@@H](CO)C(=O)N[C@H](C(=O)N1CCC[C@H]1C(=O)N[C@@H](CCC(N)=O)C(N)=O)[C@@H](C)CC)C(C)C
### Response 93.41

### Prompt // Conc. after 4-hour in HBSS lookup, key: CC[C@H](C)[C@H](NC(=O)[C@H](CO)NC(=O)[C@@H](NC(=O)[C@@H]1CCCN1C(=O)[C@H](C)NC(=O)[C@H](CC(N)=O)NC(=O)c1ccc(-c2ccccc2)cc1)C(C)C)C(=O)N1CCC[C@H]1C(=O)N[C@@H](CCC(N)=O)C(=O)O
### Response 95.73

### Prompt // Conc. after 4-hour in HBSS lookup, key: CCCCOC(=O)N[C@@H](CC(N)=O)C(=O)N[C@@H](C)C(=O)N1CCC[C@H]1C(=O)N[C@H](C(=O)N[C@@H](CO)C(=O)N[C@H](C(=O)N1CCC[C@H]1C(=O)N[C@@H](CCC(N)=O)C(=O)O)[C@@H](C)CC)C(C)C
### Response 98.49
